Would you kindly list growth for each of these molecules?
tested on: NCI-H226 lung; assay: NCI-60 one-dose screen, 48 h (100 = growth as untreated, 0 = no growth, -100 = all killed); conditions: 10 µM
The panel holds about 83,000 compounds, 20% with a hit somewhere; the sample as a whole holds those more often.
Answers are plain numbers, in %.

Example results:
1. O=c1cc(-c2ccccc2)oc2cc(OCCCNCc3ccccc3)cc(O)c12 = 46.4
2. N#Cc1c(-c2ccc(F)cc2)nc(SCc2ccc([N+](=O)[O-])cc2)nc1N1CCOCC1 = 23.8

Please look at the items below and tell me growth for each one, in order.
1. COc1ccc2c(c1)N=C(C(=O)O)/C2=C/c1sc(Nc2ccc(O)cc2)nc1O
2. N#Cc1c(Cl)nc(SCc2ccc(F)cc2)nc1-c1ccc(F)cc1
3. O=C1c2ccccc2C(=O)c2c1c(C(=O)c1ccc(Cl)cc1)n1c2ccc2c3ccccc3ccc21

Response line:
54.8
71.3
103

Please look at the items below and tell me growth for each one, in order.
1. COc1cccc2nc(Nc3cccc(NC(=O)c4ccc(CN5CCCN(C)CC5)c(C(F)(F)F)c4)c3)ccc12
2. CONC[C@]1(C)C=C2C(=O)[C@](C)(O)C3(CC3)C(C)=C2[C@H]1O

Response line:
-70.5
-26.7

Please look at the items below and tell me growth for each one, in order.
1. O=C1Nc2cc(Cl)ccc2/C1=C/c1ccc(OCc2ccc(Br)cc2F)cc1
2. COc1ccc(-c2ccc(/C=N/NC(=O)c3[nH]c4ccc(Br)cc4c3-c3ccccc3)o2)cc1
3. CN(C(=O)c1ccc(C(C)(C)C)cc1)c1sc2c(c1C#N)CCC(=O)C2
4. COc1cc(/C=N/NC(=O)c2ccc3nc(-c4ccc(Cl)cc4)[nH]c3c2)cc(OC)c1OC
5. O=C(c1ccc(Cl)cc1)C1[C@H](c2ccccc2Br)[C@@H](c2ccccc2)NC12C(=O)Nc1ccc(Cl)cc12 (some centres undefined)
6. COc1cc(/C=C/C(=O)c2cc(OC)c(OC)c(OC)c2)ccc1Oc1nc(Nc2ccc(F)cc2)nc(N(C)C)n1

Response line:
[-70.6, 44.1, 62.6, -50.5, 18.9, 17.9]

###

tested on: U251 CNS; experiment: NCI-60 one-dose screen, 48 h; conditions: 10 µM
This is part of a sample that, as a whole, favours compounds with a hit. Of some 83,000 tested, about 20% had one in any assay. The source made the active and inactive calls. Rule for the calls: active = growth percent below 10; inactive = the rest.
Outcome (select one): active, inactive

1) COc1ccc(CCN2C(=O)/C(=C/c3csc(C#N)n3)SC2=S)cc1OC = inactive
2) Cc1ccc(C(=O)N/C(=C2/OCCN2C)[P+](c2ccccc2)(c2ccccc2)c2ccccc2)cc1 = inactive
3) O=C(NO)c1ccc(Cn2ccc3c(Nc4ccccc4)ncnc32)cc1 = active
4) CN1CCCN(Cc2ccc(C(=O)Nc3cccc(Nc4ccc5cc(O)ccc5n4)c3)cc2C(F)(F)F)CC1 = inactive

Prompt line: How was CC(=O)c1ccc(Nc2nc(SCCC(C)C)nc(-c3ccc(F)cc3)c2C#N)cc1 classified in this test?
Response line: active

Prompt line: How was O=C(CNc1nc(-c2ccccc2)cs1)Nc1ccc(Br)cc1 classified in this test?
Response line: active

Prompt line: How was CC1=C(c2cc(-c3ccc(Cl)cc3)c(C#N)c(N)n2)C(c2ccccc2)NC(=S)N1 (configuration not stated) classified in this test?
Response line: inactive
